Target: Voltage-dependent L-type calcium channel subunit alpha-1C (Oryctolagus cuniculus, UniProt P15381)
Sequence (P15381 whole entry): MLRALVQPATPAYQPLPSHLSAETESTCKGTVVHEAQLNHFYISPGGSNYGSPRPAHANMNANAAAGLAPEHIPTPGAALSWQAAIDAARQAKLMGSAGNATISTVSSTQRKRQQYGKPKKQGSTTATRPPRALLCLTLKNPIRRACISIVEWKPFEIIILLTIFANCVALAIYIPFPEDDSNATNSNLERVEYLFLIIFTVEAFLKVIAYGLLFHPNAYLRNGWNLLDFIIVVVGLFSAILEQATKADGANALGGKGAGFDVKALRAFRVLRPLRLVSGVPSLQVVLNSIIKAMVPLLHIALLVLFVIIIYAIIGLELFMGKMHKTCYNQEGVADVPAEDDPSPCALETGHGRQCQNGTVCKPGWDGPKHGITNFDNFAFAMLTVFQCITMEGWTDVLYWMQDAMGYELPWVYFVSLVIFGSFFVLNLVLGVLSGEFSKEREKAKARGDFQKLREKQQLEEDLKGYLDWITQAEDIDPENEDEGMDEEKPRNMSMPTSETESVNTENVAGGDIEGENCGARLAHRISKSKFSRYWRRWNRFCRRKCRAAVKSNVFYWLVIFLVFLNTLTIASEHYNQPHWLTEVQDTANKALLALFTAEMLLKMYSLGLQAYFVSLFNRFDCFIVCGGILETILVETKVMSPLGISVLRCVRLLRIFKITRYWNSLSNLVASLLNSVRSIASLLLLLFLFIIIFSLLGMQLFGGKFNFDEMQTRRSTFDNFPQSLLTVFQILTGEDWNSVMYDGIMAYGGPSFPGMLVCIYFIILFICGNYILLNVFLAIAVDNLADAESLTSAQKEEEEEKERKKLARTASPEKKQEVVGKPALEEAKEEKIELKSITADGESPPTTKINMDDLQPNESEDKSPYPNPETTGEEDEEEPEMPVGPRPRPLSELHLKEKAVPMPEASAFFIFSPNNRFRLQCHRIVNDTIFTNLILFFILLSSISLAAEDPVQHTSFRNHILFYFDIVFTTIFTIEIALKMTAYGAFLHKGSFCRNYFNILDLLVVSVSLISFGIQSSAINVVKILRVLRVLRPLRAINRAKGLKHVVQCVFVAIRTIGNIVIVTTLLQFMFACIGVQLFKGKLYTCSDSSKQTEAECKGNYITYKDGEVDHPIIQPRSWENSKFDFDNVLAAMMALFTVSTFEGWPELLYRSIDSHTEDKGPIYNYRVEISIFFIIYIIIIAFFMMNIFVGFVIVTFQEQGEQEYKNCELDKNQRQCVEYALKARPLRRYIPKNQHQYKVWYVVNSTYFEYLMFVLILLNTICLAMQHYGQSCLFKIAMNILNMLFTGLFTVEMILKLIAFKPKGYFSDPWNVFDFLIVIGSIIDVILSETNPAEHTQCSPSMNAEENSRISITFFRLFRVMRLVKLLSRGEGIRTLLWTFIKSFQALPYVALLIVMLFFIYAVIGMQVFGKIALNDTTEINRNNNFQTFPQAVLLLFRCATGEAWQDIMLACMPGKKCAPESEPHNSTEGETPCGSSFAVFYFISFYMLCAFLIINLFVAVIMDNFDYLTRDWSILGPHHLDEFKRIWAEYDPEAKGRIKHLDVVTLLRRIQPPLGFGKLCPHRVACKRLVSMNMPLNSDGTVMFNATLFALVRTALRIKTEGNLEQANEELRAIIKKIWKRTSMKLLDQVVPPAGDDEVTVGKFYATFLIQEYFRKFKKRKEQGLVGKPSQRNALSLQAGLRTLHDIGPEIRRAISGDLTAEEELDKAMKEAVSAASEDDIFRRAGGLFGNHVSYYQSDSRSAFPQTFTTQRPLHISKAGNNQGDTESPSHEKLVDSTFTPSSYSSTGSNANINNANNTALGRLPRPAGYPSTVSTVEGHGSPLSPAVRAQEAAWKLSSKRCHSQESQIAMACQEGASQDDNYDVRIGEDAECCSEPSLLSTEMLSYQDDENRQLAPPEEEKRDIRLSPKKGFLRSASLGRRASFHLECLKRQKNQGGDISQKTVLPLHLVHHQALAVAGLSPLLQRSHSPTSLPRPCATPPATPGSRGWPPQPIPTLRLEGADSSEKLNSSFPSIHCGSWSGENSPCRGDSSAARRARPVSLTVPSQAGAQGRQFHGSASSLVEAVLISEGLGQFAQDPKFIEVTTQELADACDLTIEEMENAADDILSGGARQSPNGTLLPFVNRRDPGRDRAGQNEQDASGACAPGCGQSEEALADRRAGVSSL
Experiment: Antagonist activity at rabbit CaV1.2alpha1C transfected in HEK293 cells by FLIPR assay
Readout Label: log10 of IC50 (log10 of the value in µM)
In plain terms, each number is the log10 of measured IC50 in µM.

Study these solved cases before continuing.
O=C1CC(=O)N(C2CCCC2)C(=O)N1CCc1cc(C(F)(F)F)cc(C(F)(F)F)c1 : 0.41
O=C1CC(=O)N(C2CC3CCC2C3)C(=O)N1CCc1cc(Cl)cc(Cl)c1 (racemic) : 0.66
O=C1CC(=O)N(C2CCCC2)C(=O)N1CCc1ccc(Cl)c(Cl)c1 : 0.53
C[C@@H]1CCC[C@@H]1N1C(=O)CC(=O)N(CCc2ccc(Cl)cc2)C1=O : 0.71
CCOC(=O)[C@@H]1CCC[C@@H]1N1C(=O)CC(=O)N(CCc2cccc(Cl)c2)C1=O : 1.10

Please go through the list and note log10 of IC50 for each compound.
1. O=C1CC(=O)N(C2CC3CCC2C3)C(=O)N1CCc1ccc(Cl)cc1 (mixture of isomers)
2. COC(=O)C(Cc1ccc(Cl)cc1)N1C(=O)CC(=O)N(C2CCCC2)C1=O (stereo not drawn)
3. CC(C)OC(=O)[C@H]1CC[C@@H](N2C(=O)CC(=O)N(CCc3cccc(Cl)c3)C2=O)C1

1: 1.70; 2: 1.13; 3: 0.93

Report log10 of IC50 for every entry below.
1. O=C1CC(=O)N(C2CCCC2)C(=O)N1CCCc1ccccc1
2. C[C@H]1CCC[C@H]1N1C(=O)CC(=O)N(CCc2cccc(Cl)c2)C1=O
3. COC(=O)C1(N2C(=O)CC(=O)N(CCc3cccc(Cl)c3)C2=O)CCCC1
4. CC1(C)CCC[C@@H]1N1C(=O)CC(=O)N(CCc2ccc(Cl)cc2)C1=O
5. O=C1CC(=O)N([C@H]2C[C@H]3CC[C@@H]2C3)C(=O)N1CCc1ccc(Cl)cc1
6. CC1(C)CCC[C@@H]1N1C(=O)CC(=O)N(CCc2cccc(Cl)c2)C1=O
7. O=C1CC(=O)N([C@@H]2C[C@@H]3CC[C@H]2C3)C(=O)N1CCc1ccc(Cl)cc1
8. CC(C)(CN1C(=O)CC(=O)N(C2CCCC2)C1=O)c1cccc(Cl)c1

1: 1.34; 2: 0.97; 3: 1.52; 4: 0.36; 5: 2.00; 6: 0.54; 7: 1.73; 8: 1.10

Look at each compound and report its log10 of IC50.
1. CC(CN1C(=O)CC(=O)N(C2CC3CCC2C3)C1=O)c1ccc(Cl)cc1 (racemic)
2. CC1(C)CCC(N2C(=O)CC(=O)N(CCc3cccc(Cl)c3)C2=O)C1 (stereo not drawn)

[0.90, 1.63]

Value sought for every listed compound: log10 of IC50.
1. O=C1CC(=O)N(C2CCc3ccccc32)C(=O)N1C1CCCC1 (stereo not drawn)
2. CC(C)C(=O)O[C@H]1CCC[C@@H]1N1C(=O)CC(=O)N(CCc2cccc(Cl)c2)C1=O
3. CO[C@H]1CCC[C@@H]1N1C(=O)CC(=O)N(CCc2cccc(Cl)c2)C1=O
4. C[C@H]1CCC[C@@H]1N1C(=O)CC(=O)N(CCc2ccc(Cl)cc2)C1=O (racemic)
5. O=C1CC(=O)N(C2CCCC2)C(=O)N1CCC(c1ccccc1)c1ccccc1

[1.39, 1.11, 1.54, 1.36, 0.67]

Below are some compounds; for each one, tell me its log10 of IC50.
1. C[C@@H]1[C@@H](C)CC[C@@H]1N1C(=O)CC(=O)N(CCc2cccc(Cl)c2)C1=O
2. CC1(C)CCC[C@H]1N1C(=O)CC(=O)N(CCc2ccc(Cl)cc2)C1=O
3. O=C1CC(=O)N(C2CCCC2)C(=O)N1CCc1cc(Cl)cc(Cl)c1
4. O=C1CC(=O)N(C2CC3CCC2C3)C(=O)N1CCc1cc(C(F)(F)F)cc(C(F)(F)F)c1 (mixture of isomers)

1. 1.12
2. 0.68
3. 0.52
4. 0.58
